Test system: MDA-MB-231 breast
Assay: NCI tumour cell line growth inhibition, 48 h
Kindly supply the reported TGI values for the records listed here.

Entry Cc1c(-c2ccc(O)c(O)c2)oc(=O)c2c(O)cc(O)cc12 ; TGI = > 100 µM

Entry COc1nc(SC)nc2c1C(O)n1c(nc3ccccc31)S2 (stereo not drawn) ; TGI = > 100 µM

Entry N#Cc1ccccc1C#C/C=C\C#Cc1cccs1 ; TGI = > 100 µM

---

System: T-47D breast
Assay: NCI tumour cell line growth inhibition, 48 h
measureName: GI50

// assay T-47D breast, entry Cc1cc(C)c(S(=O)(=O)N2CCN(c3cc4c(cc3F)c(=O)c(C(=O)O)cn4C3CC3)CC2)c(C)c1 , GI50 value = 4.81 µM

// assay T-47D breast, entry NC(=O)[C@@H](CCC(F)(F)F)N(Cc1ccc(-c2ncon2)cc1F)S(=O)(=O)c1ccc(Cl)cc1 , GI50 value = 21.3 µM

// assay T-47D breast, entry N#Cc1ccccc1C#C/C=C\C#Cc1cccs1 , GI50 value = 12.6 µM

// assay T-47D breast, entry CCCCCCC/C(=N\N=C(N)N)c1ccc(O)cc1 , GI50 value = 1.87 µM

---

System: OVCAR-8 ovarian
Test: NCI tumour cell line growth inhibition, 48 h
Kindly supply the reported TGI values for the records listed here.

// assay OVCAR-8 ovarian, entry CO[C@]12C#CC=CC#C[C@@H](O)[C@]3(CCC1)O[C@@]23c1cccc(O)c1 , TGI value = > 100 µM

// assay OVCAR-8 ovarian, entry Cc1ccc2c3c4c(ccc13)C(C)(C)OC4=C(C(C)C)C2=O , TGI value = > 100 µM

// assay OVCAR-8 ovarian, entry COC(=O)[C@H](Cc1c[nH]c2ccccc12)NC(=O)OCC1OC(n2cc(C)c(=O)[nH]c2=O)CC1N=[N+]=[N-] (stereo partly drawn) , TGI value = > 100 µM

---

System: HOP-92 NSCLC
Test: NCI tumour cell line growth inhibition, 48 h; in the data active = GI50 below about 0.43 µM; inactive = the rest
Respond with a class label; see Y = active, N = inactive

Challenge: Please state the recorded outcome for this molecule: O=C1C(C(Nc2ccccc2)c2ccccc2)=C([O-])c2ccccc21.O=C1C(C(Nc2ccccc2)c2ccccc2)=C([O-])c2ccccc21.[Co+2] (configuration not stated)
Response given: N

Challenge: Please state the recorded outcome for this molecule: Cc1ccncc1N1CCN(c2ccnc(Cl)c2)C1=O
Response given: N

Challenge: Please state the recorded outcome for this molecule: C[C@@H]1CCC2[C@@H](C)[C@@H](OC3CCC(O)CC3)OC3O[C@@]4(C)CCC1[C@]32OO4 (some centres not stated)
Response given: N

Challenge: Please state the recorded outcome for this molecule: Cc1c(-c2ccc(O)c(O)c2)oc(=O)c2c(O)cc(O)cc12
Response given: N

Challenge: Please state the recorded outcome for this molecule: Cc1ccc(S(=O)(=O)Oc2ccccc2-c2ccccc2)cc1
Response given: N

Challenge: Please state the recorded outcome for this molecule: COc1ccc2[nH]c(C(=O)N3CCN(C(=O)OCc4ccc5c(Br)cc(Br)c(O)c5n4)CC3)cc2c1
Response given: Y

Challenge: Please state the recorded outcome for this molecule: CCCCCCC/C(=N\N=C(N)N)c1ccc(O)cc1
Response given: N

Challenge: Please state the recorded outcome for this molecule: COc1cc(C(=O)/C=C/c2cc(-c3cc(OC)c(OC)c(OC)c3)n[nH]2)cc(OC)c1OC
Response given: Y

Challenge: Please state the recorded outcome for this molecule: CC12CC[C@@H]3c4cc5c(cc4CC[C@H]3[C@@H]1CCC2O)oc1cc(F)ccc15 (some centres not stated)
Response given: N

Challenge: Please state the recorded outcome for this molecule: O=c1c2sc3ccccc3c2nnn1-c1ccc(F)c(Cl)c1
Response given: N

Challenge: Please state the recorded outcome for this molecule: COc1ccc(C(=O)C2C(C#N)C(C#N)C3C=Cc4ccccc4N32)cc1 (configuration not stated)
Response given: N

Challenge: Please state the recorded outcome for this molecule: CCC(=O)Oc1cc(/C=C/C(=O)O[C@H]2C[C@H]3CN4CCc5c([nH]c6cc(OC)ccc56)[C@@H]4C[C@@H]3[C@@H](C(=O)OC)[C@@H]2OC)ccc1OC
Response given: N
